The values you see were collected from paper PMC5413848.

- experimental-protocol: Substrate depletion in in-house rat intestinal microsome pools 1 and 2, combined CYP and UGT cofactors
- details: Han-Wistar, rat, rat intestinal microsomes, in-house pool 1, pH 7.4, CL int,u, in-house combined cofactors, Pool 1, pool 1, 1 mg/ml, 1 μM compound, CYP and UGT cofactors
assay-metric: microsomal CLint at 1 μM

I need microsomal CLint at 1 μM for every entry listed below, if you could help.
1. CN(C)CCC=C1c2ccccc2CCc2ccccc21 [Amitriptyline]
2. COc1ccc2[nH]c([S+]([O-])Cc3ncc(C)c(OC)c3C)nc2c1 (centres unmarked) [Omeprazole]

1: 24.3 µL/min/mg; 2: 7.6 µL/min/mg
